Kindly supply the reported Solubility (mg/ml) at pH 7 values for the records listed here.
Test: Solubility analysis: aqueous solubility in buffer at physiological pH
Format: physicochemical
Conditions: 25-30° C.
Method: Solubility analysis: Method for determining aqueous solubility at different physiological pH at 25-30° C. temperature: To accurately weighed amount of test substance, particular buffer solution was added in portion (about 50 microliter portions) at 25-30° C. temperature till solid is completely dissolved and clear solution is obtained.

Here is how some compounds turned out for Solubility (mg/ml) at pH 7.
compound="CC(C)[C@H](N)C(=O)OC1CCN(c2c(F)cc3c(=O)c(C(=O)O)cn4c3c2CC[C@@H]4C)CC1 [reference compound]" metric="Solubility (mg/ml) at pH 7" readout_value="<1 mg/ml"
compound=C[C@H](N)C(=O)OC1CCN(c2c(F)cc3c(=O)c(C(=O)O)cn4c3c2CC[C@@H]4C)CC1.Cl metric="Solubility (mg/ml) at pH 7" readout_value="4 mg/ml"

# map each compound to its Solubility (mg/ml) at pH 7
1. CC(C)[C@H](N)C(=O)OC1CCN(c2c(F)cc3c(=O)c(C(=O)O)cn4c3c2CC[C@@H]4C)CC1.CS(=O)(=O)O
2. CS(=O)(=O)O.C[C@H](N)C(=O)OC1CCN(c2c(F)cc3c(=O)c(C(=O)O)cn4c3c2CC[C@@H]4C)CC1

Response line:
1: >200 mg/ml; 2: >200 mg/ml
